STUDY_SYSTEM: T1, human SIRPA_V2 protein (human, UniProt P78324 31-504)
T1 construct: Expressed on 293α cells from pcDNA3.2 V5-DEST or pFLAG V5-DEST (FLAG-tagged) vectors; also called human SIRPA Variant 2; ECD variant (full-length, amino acids 1 to 504)
T1 sequence (P78324 other isoform, or with tags, fused parts or gaps limits assumed): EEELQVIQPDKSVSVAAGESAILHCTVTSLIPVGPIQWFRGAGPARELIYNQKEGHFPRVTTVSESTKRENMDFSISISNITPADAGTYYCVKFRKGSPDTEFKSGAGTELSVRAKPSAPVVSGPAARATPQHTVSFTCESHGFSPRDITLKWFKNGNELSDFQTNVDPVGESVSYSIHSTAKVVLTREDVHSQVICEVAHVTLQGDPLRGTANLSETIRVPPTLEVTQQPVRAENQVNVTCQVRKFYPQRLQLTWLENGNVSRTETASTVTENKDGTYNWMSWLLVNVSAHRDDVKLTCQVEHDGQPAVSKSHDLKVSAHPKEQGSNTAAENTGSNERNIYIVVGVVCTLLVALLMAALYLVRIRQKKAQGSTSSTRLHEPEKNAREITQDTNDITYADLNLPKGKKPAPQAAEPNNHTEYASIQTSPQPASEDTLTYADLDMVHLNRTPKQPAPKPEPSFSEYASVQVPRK
ASSAY_COMMENT: blocking cell-based ELISA: peroxidase-labeled CD47-Fc (10,000 ng/mL) on 293α cells expressing SIRPA_V2; y axis = CD47-Fc signal in % of no antibody [ii]
IC50 (read off the curve) for assorted binders
PARAMETER: IC50 (read off the curve)

• cF44 (IgG4p) (antibody, V domains shown, Human IgG4p (PRO mutation) constant region; also called cF44 IgG4p type) VH: EVQLVESGGGLVQPGRSLKLSCAASGFTFSNYYMAWVRQAPTKGLEWVTYITTGGGSTYFRDSVKGRFTISRDNAESTLYLQMDSLRSEDTATYYCTAANYGGSYFDYWGQGVMVTVSS VL: DVQMTQSPSNLAASPGESVSINCKASKSISKYLAWYQQKPGKANKLLIYSGSTLQSGTPSRFSGSGSGTDFTLTIRNLEPEDFGLYYCQQHNEYPPTFGAGTKLELK = ~0.4 µg/mL
• human chimeric anti-SIRPA antibody cF44 (antibody, human IgG4 S228P, kappa, F234A L235A, V domains shown, Human IgG4proFALA heavy chain, human kappa light chain; also called cF44 (IgG4pf); human chimeric antibody F44) VH: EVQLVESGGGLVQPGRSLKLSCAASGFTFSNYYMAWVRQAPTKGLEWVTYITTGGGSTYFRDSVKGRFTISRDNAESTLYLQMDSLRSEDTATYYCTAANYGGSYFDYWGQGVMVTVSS VL: DVQMTQSPSNLAASPGESVSINCKASKSISKYLAWYQQKPGKANKLLIYSGSTLQSGTPSRFSGSGSGTDFTLTIRNLEPEDFGLYYCQQHNEYPPTFGAGTKLELKR = ~0.4 µg/mL
• cF44 (IgG2) (antibody, V domains shown, Human IgG2 constant region; also called cF44 IgG2 type) VH: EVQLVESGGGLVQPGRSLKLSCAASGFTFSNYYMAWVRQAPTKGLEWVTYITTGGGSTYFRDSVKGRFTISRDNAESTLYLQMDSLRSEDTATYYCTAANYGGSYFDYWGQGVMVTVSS VL: DVQMTQSPSNLAASPGESVSINCKASKSISKYLAWYQQKPGKANKLLIYSGSTLQSGTPSRFSGSGSGTDFTLTIRNLEPEDFGLYYCQQHNEYPPTFGAGTKLELK = ~0.3 µg/mL
• cF44 (IgG1) (antibody, V domains shown, Human IgG1 constant region; also called cF44 IgG1 type) VH: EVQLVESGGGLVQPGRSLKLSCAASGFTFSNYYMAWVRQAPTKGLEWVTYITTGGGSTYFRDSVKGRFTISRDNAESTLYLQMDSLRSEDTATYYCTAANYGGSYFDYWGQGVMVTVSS VL: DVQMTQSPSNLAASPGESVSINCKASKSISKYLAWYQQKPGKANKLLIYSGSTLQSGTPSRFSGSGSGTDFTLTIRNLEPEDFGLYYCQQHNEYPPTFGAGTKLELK = ~0.4 µg/mL

Provenance of the data: patent US20260098102A1
